- ASSAY TARGET: Cytochrome P450 2D6 (Homo sapiens)
- TEST PROTOCOL: Cytochrome panel assay with activity outcomes
- CONDITION SUMMARY: recombinant CYP, pro-luciferin dealkylation, luminescence, p450-cyp2d6; series mostly up to 57.1 µM
Out of some 16,000 compounds screened, about 2,600 (16%) were called active. Another 20% or so got no clear call; they are omitted. Calls follow the shape of the dose curve; as a rule, active = well fitted curve in the direction sought with a large enough effect; inconclusive = small, poorly fitted or top-dose-only effect, or effect the other way; inactive = no such curve, though single readings can be large or run the other way. A selection follows.
Possible outcomes: active, inactive

- COMPOUND STRUCTURE: "CN(Cc1ccco1)c1cc(-c2ccccc2Cl)ncn1"
  CATEGORY: "inactive"
- COMPOUND STRUCTURE: "COC(=O)c1ccc(N2CCN(CC(=O)c3ccc(-c4ccccc4)cc3)CC2)c([N+](=O)[O-])c1"
  CATEGORY: "active"
- COMPOUND STRUCTURE: "CN(C)Cc1ccccc1-c1cc(N(C)Cc2ccco2)ncn1"
  CATEGORY: "active"
- COMPOUND STRUCTURE: "Cc1ccc(NC(=O)N/C=C/c2ccco2)cc1C"
  CATEGORY: "inactive"
- COMPOUND STRUCTURE: "COc1ccc(-c2cc(C3CCN(c4ccc(C(C)=O)cc4[N+](=O)[O-])CC3)[nH]n2)cc1"
  CATEGORY: "inactive"

* * *

- ASSAY TARGET: Cytochrome P450 2D6 (Homo sapiens) (UniProt P10635)
- Sequence (P10635 whole entry, looked up): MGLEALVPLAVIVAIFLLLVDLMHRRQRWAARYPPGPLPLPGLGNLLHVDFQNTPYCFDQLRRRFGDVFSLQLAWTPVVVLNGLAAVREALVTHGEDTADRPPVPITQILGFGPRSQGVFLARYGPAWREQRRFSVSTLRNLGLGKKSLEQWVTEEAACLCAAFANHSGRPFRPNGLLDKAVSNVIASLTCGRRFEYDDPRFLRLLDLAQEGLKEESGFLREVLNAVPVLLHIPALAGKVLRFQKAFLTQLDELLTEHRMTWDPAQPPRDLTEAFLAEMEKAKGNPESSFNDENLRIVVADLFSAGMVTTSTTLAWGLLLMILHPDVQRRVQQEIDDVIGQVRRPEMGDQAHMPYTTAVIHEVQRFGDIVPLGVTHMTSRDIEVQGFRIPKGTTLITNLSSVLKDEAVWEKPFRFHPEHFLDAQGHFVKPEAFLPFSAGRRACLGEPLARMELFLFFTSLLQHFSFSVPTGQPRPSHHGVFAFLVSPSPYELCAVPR
- TEST PROTOCOL: Cytochrome panel assay with activity outcomes
- CONDITION SUMMARY: recombinant CYP, pro-luciferin dealkylation, luminescence, p450-cyp2d6; series mostly up to 57.1 µM
In all, about 16,000 compounds went through this assay and about 2,600 (16%) were called active. About 20% were inconclusive and are not listed. The call rests on the fitted dose curve; in most records, active means well fitted curve in the direction sought with a large enough effect; inconclusive means small, poorly fitted or top-dose-only effect, or effect the other way; inactive means no such curve, though single readings can be large or run the other way. The list is a sample of the results.
Possible outcomes: active, inactive

- MOLECULE: "O=C(Nc1ccc(F)cc1Cl)c1ccc2c(=O)n3c(nc2c1)CCCCC3"
  CATEGORY: "inactive"
- MOLECULE: "COc1c(O)cc2c(c1O)[C@@H]1O[C@@H](CO)[C@@H](O)[C@@H](O)[C@@H]1OC2=O"
  CATEGORY: "inactive"
- MOLECULE: "COc1ccc(OC)c(S(=O)(=O)N2CCC(C(=O)Nc3ccc(C)c(C)c3)CC2)c1"
  CATEGORY: "inactive"
- MOLECULE: "O=C(Nc1ccc(Cl)c(C(F)(F)F)c1)C1CCCN(S(=O)(=O)c2cnc[nH]2)C1 (stereo not given)"
  CATEGORY: "active"
- MOLECULE: "c1ccc(-c2noc(-c3ccc4ccccc4c3)n2)cc1"
  CATEGORY: "inactive"
- MOLECULE: "NC(=O)c1nn(-c2ccccc2)c(=O)cc1O"
  CATEGORY: "inactive"
- MOLECULE: "COC(=O)[C@@H]1CC[C@H](C)[C@@H](c2ccc(C)cc2)N1C(=O)c1ccc(/C=N\\OC[C@@H](C)[C@H](OCc2ccccc2)C(C)C)cc1"
  CATEGORY: "active"
- MOLECULE: "COc1cc([C@@H](O)CO)ccc1OS(=O)(=O)O"
  CATEGORY: "inactive"
- MOLECULE: "C[N+]1(C)C[C@@H](O)C[C@@H]1C(=O)[O-]"
  CATEGORY: "inactive"
- MOLECULE: "CCCS(=O)(=O)N1CCCC(C(=O)NCc2cccnc2)C1 (stereo not given)"
  CATEGORY: "inactive"

* * *

- ASSAY TARGET: Cytochrome P450 2D6 (Homo sapiens) (UniProt P10635)
- TEST PROTOCOL: Cytochrome panel assay with activity outcomes
- CONDITION SUMMARY: recombinant CYP, pro-luciferin dealkylation, luminescence, p450-cyp2d6; series mostly up to 57.1 µM
About 2,600 (16%) of roughly 16,000 compounds were called active. About 20% were inconclusive and are not listed. Calls follow the shape of the dose curve; as a rule, active = well fitted curve in the direction sought with a large enough effect; inconclusive = small, poorly fitted or top-dose-only effect, or effect the other way; inactive = no such curve, though single readings can be large or run the other way. Only a sample is shown.
Possible outcomes: active, inactive

- MOLECULE: "CCOc1ccc2nc(N3CCCCCC3)sc2c1"
  CATEGORY: "active"
- MOLECULE: "OC[C@H]1NC[C@@H](O)[C@@H](O)[C@H]1O"
  CATEGORY: "inactive"
- MOLECULE: "Cc1cc(Oc2ccccc2)nc(-c2ccccc2)n1"
  CATEGORY: "inactive"
- MOLECULE: "COc1ccc(C(=O)Nc2scc(-c3ccc(Cl)cc3Cl)c2C(N)=O)cc1"
  CATEGORY: "inactive"
- MOLECULE: "COc1ccc(-n2c(=O)c(C)nc3cnc(N(C)C)nc32)cc1"
  CATEGORY: "inactive"
- MOLECULE: "CC(=O)c1ccc(OC(=O)C2c3ccccc3Oc3ccccc32)cc1"
  CATEGORY: "inactive"
- MOLECULE: "CC[N+](CC)(CC)CC[C@](O)(c1ccccc1)C1CCCCC1"
  CATEGORY: "active"
- MOLECULE: "C1CCc2c(nc3nnnn3c2NC2CCCC2)C1"
  CATEGORY: "inactive"
- MOLECULE: "OC(CCN1CCCCC1)(c1ccccc1)c1ccccc1"
  CATEGORY: "active"
- MOLECULE: "COc1cc(C2C(C#N)=C(N)N(c3sc4c(c3C#N)CCCC4)C3=C2C(=O)CC(C)(C)C3)cc(OC)c1OC (stereo unspecified)"
  CATEGORY: "inactive"
- MOLECULE: "COc1ccc(Nc2cc(=O)n(C3CCCCC3)c(=O)[nH]2)c(OC)c1"
  CATEGORY: "inactive"

* * *

- ASSAY TARGET: Cytochrome P450 2D6 (Homo sapiens) (UniProt P10635)
- TEST PROTOCOL: Cytochrome panel assay with activity outcomes
- CONDITION SUMMARY: recombinant CYP, pro-luciferin dealkylation, luminescence, p450-cyp2d6; series mostly up to 57.1 µM
The whole screen tested about 16,000 compounds, of which about 2,600 (16%) were called active. Another 20% or so got no clear call; they are omitted. Not all results are given here.

- COMPOUND: "Cc1cnc(CNc2ccnc(-c3ccccc3C(F)(F)F)n2)cn1"
  AC50: "inactive"
- COMPOUND: "Cc1cnc(CNc2cc(-c3ccccc3C)ncn2)cn1"
  AC50: "inactive"
- COMPOUND: "CN(C)Cc1ccccc1-c1cc(NCc2cccs2)ncn1"
  AC50: "2 µM (active)"
- COMPOUND: "COCCNc1ccnc(-c2ccccc2C(F)(F)F)n1"
  AC50: "inactive"
- COMPOUND: "CCC(C)NC(=O)c1cnn2c(C)c3c(nc12)CCCC3 (stereo unspecified)"
  AC50: "inactive"
- COMPOUND: "CCCCCCCCCn1cc(C(C)=O)c(=O)[nH]c1=O"
  AC50: "inactive"
- COMPOUND: "CN(C)Cc1ccccc1-c1nccc(NCc2cccs2)n1"
  AC50: "1.58 µM (active)"
- COMPOUND: "CCN1CCN(C(=O)N[C@H](C(=O)N[C@@H]2C(=O)N3C(C(=O)O)=C(CSc4nnnn4C)CS[C@@H]23)c2ccc(O)cc2)C(=O)C1=O"
  AC50: "inactive"
- COMPOUND: "Cc1cnc(CNc2ccnc(-c3ccccc3C)n2)cn1"
  AC50: "inactive"
- COMPOUND: "COc1cccc(C(CC(=O)Nc2cccc3ccccc23)NC(=O)c2ccccc2)c1 (stereo unspecified)"
  AC50: "inactive"
- COMPOUND: "Cc1ccc(S(=O)(=O)/N=C2/NC(=O)/C(=C/c3cccnc3)S2)cc1"
  AC50: "inactive"

* * *

- ASSAY TARGET: Cytochrome P450 2D6 (Homo sapiens) (UniProt P10635)
- TEST PROTOCOL: Cytochrome panel assay with activity outcomes
- CONDITION SUMMARY: recombinant CYP, pro-luciferin dealkylation, luminescence, p450-cyp2d6; series mostly up to 57.1 µM
The whole screen tested about 16,000 compounds, of which about 2,600 (16%) were called active. Inconclusive results (about 20%) are left out. Calls come from the whole dose curve; as a rule, active = well fitted curve in the direction sought with a large enough effect; inconclusive = small, poorly fitted or top-dose-only effect, or effect the other way; inactive = no such curve, though single readings can be large or run the other way. Only a sample is shown.
Possible outcomes: true (1) = active, false (0) = inactive

- COMPOUND: "CCOC(=O)CSCC(NC(=O)OC(C)(C)C)C(=O)OCC (stereo unspecified)"
  CATEGORY: "false (0)"
- COMPOUND: "O=c1c(C=Nc2ccc(Oc3ccccc3)cc2)c[nH]n1-c1cccc(Cl)n1"
  CATEGORY: "false (0)"
- COMPOUND: "N#CCSc1nc2cc(C(=O)N3CCCC3)ccc2c(=O)n1Cc1ccccc1"
  CATEGORY: "false (0)"
- COMPOUND: "CCOC(=O)[C@@]12C[C@@H]1/C(=N/O)c1ccccc1O2"
  CATEGORY: "false (0)"
- COMPOUND: "COc1ccc(Cl)cc1N=Nc1ncc[nH]1"
  CATEGORY: "true (1)"
- COMPOUND: "CN1CCCC1CCNC1C2CC3CC(C2)CC1C3 (stereo unspecified)"
  CATEGORY: "false (0)"

* * *

- ASSAY TARGET: Cytochrome P450 2D6 (Homo sapiens) (UniProt P10635)
- TEST PROTOCOL: Cytochrome panel assay with activity outcomes
- CONDITION SUMMARY: recombinant CYP, pro-luciferin dealkylation, luminescence, p450-cyp2d6; series mostly up to 57.1 µM
Screen size: about 16,000 compounds; about 2,600 (16%) were called active. Roughly 20% stayed inconclusive and do not appear here. Calls come from the whole dose curve; as a rule, active = well fitted curve in the direction sought with a large enough effect; inconclusive = small, poorly fitted or top-dose-only effect, or effect the other way; inactive = no such curve, though single readings can be large or run the other way. These entries were drawn from the full list.
Possible outcomes: active, inactive

- COMPOUND: "Nc1ncncc1-c1ccc([N+](=O)[O-])cc1"
  ASSAY TARGET: "Cytochrome P450 2D6 (Homo sapiens) (UniProt P10635)"
  CATEGORY: "inactive"
- COMPOUND: "COC(=O)C(NS(=O)(=O)c1ccc(NC(C)=O)cc1)C(C)C (stereo unspecified)"
  ASSAY TARGET: "Cytochrome P450 2D6 (Homo sapiens) (UniProt P10635)"
  CATEGORY: "inactive"
- COMPOUND: "O=C(NN=C1C2CC3CC(C2)CC1C3)c1ccncc1"
  ASSAY TARGET: "Cytochrome P450 2D6 (Homo sapiens) (UniProt P10635)"
  CATEGORY: "inactive"
- COMPOUND: "CCNC(=S)NNC(=O)c1cc(CC(C)C)nc2ccccc12"
  ASSAY TARGET: "Cytochrome P450 2D6 (Homo sapiens) (UniProt P10635)"
  CATEGORY: "inactive"
- COMPOUND: "CCOC(=O)CNc1c(-c2ccccc2)nc2ccc(Cl)cn12"
  ASSAY TARGET: "Cytochrome P450 2D6 (Homo sapiens) (UniProt P10635)"
  CATEGORY: "active"
- COMPOUND: "CC(C)(C)OC(=O)NCCc1nnc(SCC(=O)Nc2cccc(Cl)c2)o1"
  ASSAY TARGET: "Cytochrome P450 2D6 (Homo sapiens) (UniProt P10635)"
  CATEGORY: "inactive"
- COMPOUND: "Cc1ccc(C(=O)NC(=S)Nc2ccc3c(c2)OCCO3)c(C)c1"
  ASSAY TARGET: "Cytochrome P450 2D6 (Homo sapiens) (UniProt P10635)"
  CATEGORY: "inactive"
- COMPOUND: "CCOc1ccc(N=C2NC(=O)C(CC(=O)O)S2)cc1 (stereo unspecified)"
  ASSAY TARGET: "Cytochrome P450 2D6 (Homo sapiens) (UniProt P10635)"
  CATEGORY: "inactive"
- COMPOUND: "COc1ccc(-c2nc3cnc(N(C)C)nc3n(C[C@H]3CCCO3)c2=O)cc1"
  ASSAY TARGET: "Cytochrome P450 2D6 (Homo sapiens) (UniProt P10635)"
  CATEGORY: "inactive"
- COMPOUND: "CN1CCN(c2ccc([N+](=O)[O-])cc2S(=O)(=O)N2CCOCC2)CC1"
  ASSAY TARGET: "Cytochrome P450 2D6 (Homo sapiens) (UniProt P10635)"
  CATEGORY: "inactive"
- COMPOUND: "COc1ccc(Cl)cc1NC(=O)C12CCC(C)(C(=O)O1)C2(C)C (stereo unspecified)"
  ASSAY TARGET: "Cytochrome P450 2D6 (Homo sapiens) (UniProt P10635)"
  CATEGORY: "inactive"
